Target: T1, human alpha CGRP (SEQ ID NO: 80) (human, not fully specified)
T1 construct: also called human αCGRP; hαCGRP
T1 peptide: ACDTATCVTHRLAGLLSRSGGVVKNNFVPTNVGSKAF
Assay: SPR as in Example 5
Measured Kd, listed per entry for reference.
Value kind: Kd (nM)

Binder: cysteine-free lipocalin mutein SEQ ID NO: 39 (designed binder, biotinylated by NHS chemistry for capture in SPR) QDSTSDLIPAPPLSKVPLQQNFQDNQFQGKWYVVGWAGNTLLREDKDPIKMQAMIYELKEDKSYNVTWVYFADKKKNYHIETFVPGSQPGEFTLGTIKSYPGETPILVRVVSTNYNQHAMVFFKGVNQNREIFEIVLYGRTKELTNELKENFIRFSKSLGLPENHIVFPVPIDQDIDGSAWSHPQFEK
Unit name: nM
Recorded result: 0.062
--
Binder: cysteine-free lipocalin mutein SEQ ID NO: 32 (designed binder, biotinylated by NHS chemistry for capture in SPR) QDSTSDLIPAPPLSKVPLQQNFQDNQFQGKWYVVGWAGNTLLREDKDPIKMQAMIYELKEDKSYNVTWVYFADKKMNYHIETFVPGSQPGEFTLGTIKSYPGETPILVRVVSTNYNQHAMVFFKGVNQNREIFEIVLYGRTKELTNELKENFIRFSKSLGLPENHIVFPVPIDQYIDGSAWSHPQFEK
Unit name: nM
Recorded result: 0.034
--
Binder: lipocalin mutein SEQ ID NO: 17 (designed binder, biotinylated by NHS chemistry for capture in SPR) QDSTSDLIPAPPLSKVPLQQNFQDNQFHGKWYVVGRAGNDVLREDKDPEKMEATIYELKEDKSYNVTDVGFVQKRCMYVTHTFVPGSQPGEFTLGNIESYPGVTSALVRVVSTDYNQHAMVFVKLVKQNRELFEITLYGRTKELTSELKENFIRFSKSLGLPENHIVFPVPIDQCIDGSAWSHPQFEK
Unit name: nM
Recorded result: 0.02
--
Binder: cysteine-free lipocalin mutein SEQ ID NO: 29 (designed binder, biotinylated by NHS chemistry for capture in SPR) QDSTSDLIPAPPLSKVPLQQNFQDNQFQGKWYVVGRAGNDVLREDKDPEKMEATIYELKEDKSYNVTDVGFVQKRLMYVTHTFVPGSQPGEFTLGNIESYPGVTSALVRVVSTDYNQHAMVFVKLVKQNRELFEITLYGRTKELTSELKENFIRFSKSLGLPENHIVFPVPIDQIDGSAWSHPQFEK
Unit name: nM
Recorded result: 0.065
--
Binder: lipocalin mutein SEQ ID NO: 27 (designed binder, biotinylated by NHS chemistry for capture in SPR) QDSTSDLIPAPPLSKVPLQQNFQDNQFHGKWYVVGWAGNTLLREDKDPIKMQAMIYELKEDKSYNVTWVYFADKKCNYHIETFVPGSQPGEFTLGTIKSYPGETPILVRVVSTNYNQHAMVFFKGVNQNREIFEIVLYGRTKELTNELKENFIRFSKSLGLPENHIVFPVPIDQCIDGSAWSHPQFEK
Unit name: nM
Recorded result: 0.038
